Biological target: CDC7 (Homo sapiens)
Construct: endogenous in cells; host or cells: K562 lysate
Experiment: Imatinib-matrix competition in K562 lysate
Assay type: binding
Settings: read-out: RB50 (the source's name)
Readout label: IC50

QUERY: Given the compound Cc1ccc(NC(=O)c2ccc(CN3CCN(C)CC3)cc2)cc1Nc1nccc(-c2cccnc2)n1 , what is its reported IC50?
RESULT: > 10 µM

* * *

Target: ABL1
Assay: KAM-matrix competition in K562 lysate
Conditions: ABL1; KAM-based affinity matrix, K562 lysates; read-out: RB50 (the source's name)
Readout label: pIC50
Formally, pIC50 is defined as -log10 of the concentration c, with c in mol/L.

QUERY: Given the compound N#CCc1ccc(Nc2nc(NCCCN)cc(Nc3cc(C4CC4)[nH]n3)n2)cc1 , what is its reported pIC50?
RESULT: 6.12

* * *

Molecular target: ATM (Homo sapiens)
Test: biochemical
Readout label: IC50

QUERY: Given the compound Cc1ccc(NC(=O)c2ccc(CN3CCN(C)CC3)cc2)cc1Nc1nccc(-c2cccnc2)n1 [Imatinib] , what is its reported IC50?
RESULT: > 10 µM

* * *

Target: CSNK2A1 (Homo sapiens)
Construct: endogenous in cells
Experiment: KAM-matrix competition in K562 lysate
Details: read-out: RB50 (the source's name)
Method: Supplement 12953_2017_125_MOESM1_ESM.zip/MS_Supp Info.xlsx, sheet "KAM" | column: 10 uM KAM; 1 uM KAM; 0.1 uM KAM; 0.01 uM KAM; 0.001 uM KAM; RB50
Readout label: IC50 (nM)
Give the value, in units of nM, as a plain number.

QUERY: Item N#CCc1ccc(Nc2nc(NCCCN)cc(Nc3cc(C4CC4)[nH]n3)n2)cc1 with CSNK2A1 (Homo sapiens) - IC50?
RESULT: 117

* * *

Biological target: TTK (Homo sapiens, UniProt P33981)
Construct: endogenous in cells
Test: KAM-matrix competition in K562 lysate
Settings: KAM 0.001-10 uM, read-out: RB50 (the source's name)
Readout label: IC50

QUERY: Given the compound N#CCc1ccc(Nc2nc(NCCCN)cc(Nc3cc(C4CC4)[nH]n3)n2)cc1 , what is its reported IC50?
RESULT: > 10 µM

* * *

Target: CDK13 (Homo sapiens)
Construct: endogenous in cells
Assay: KAM-matrix competition in K562 lysate
Conditions: read-out: RB50 (the source's name)
Readout label: pIC50
Formally, pIC50 is defined as -log10 of the concentration c, with c in mol/L.

QUERY: Given the compound N#CCc1ccc(Nc2nc(NCCCN)cc(Nc3cc(C4CC4)[nH]n3)n2)cc1 , what is its reported pIC50?
RESULT: 5.83

* * *

Molecular target: ULK2 (Homo sapiens, UniProt Q8IYT8)
Construct: endogenous in cells
Experiment: KAM-matrix competition in K562 lysate
Details: KAM 0.001-10 uM, read-out: RB50 (the source's name)
Readout label: IC50

QUERY: Given the compound N#CCc1ccc(Nc2nc(NCCCN)cc(Nc3cc(C4CC4)[nH]n3)n2)cc1 [KAM] , what is its reported IC50?
RESULT: > 10 µM

* * *

Molecular target: SMG1 (Homo sapiens, UniProt Q96Q15)
Construct: endogenous in cells; host or cells: K562
Test: KAM-matrix competition in K562 lysate
Format: binding
Details: KAM 0.001-10 uM, read-out: RB50 (the source's name)
Readout label: IC50

QUERY: Given the compound N#CCc1ccc(Nc2nc(NCCCN)cc(Nc3cc(C4CC4)[nH]n3)n2)cc1 , what is its reported IC50?
RESULT: > 10 µM
